- Test system: biotinyl-Phe-oxazolone
- assay-procedure: self-aminoacylation, catalytic enhancement (BFO) (fold over background); higher = more active; k-Seq, kA / k0A0; sequences stand for … in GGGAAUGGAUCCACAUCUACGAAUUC…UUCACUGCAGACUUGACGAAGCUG
Variants at the floor of the assay were thinned out.
Binary classification by self-aminoacylation, with 9 as an inclusive lower bound for true (1); all other cases are false (0).

Quick check, self-aminoacylation >= 9? AUUCUCCUAGGUCAUCCGGUG [Fam2.2 aminoacylation ribozyme variant]
true (1)

Quick check, self-aminoacylation >= 9? AAGAUUACUAAUAGUCGCAAG [Fam3.1 aminoacylation ribozyme variant]
false (0)

Quick check, self-aminoacylation >= 9? CAACUUCAAACAAUCGGUUUG [Fam1A.1 aminoacylation ribozyme variant]
true (1)

Quick check, self-aminoacylation >= 9? AAUCACCUAGGCCAUCGGGUG [Fam2.2 aminoacylation ribozyme variant]
true (1)

Quick check, self-aminoacylation >= 9? AAGUUUACUAAUAGUCACAAG [Fam3.1 aminoacylation ribozyme variant]
false (0)

Quick check, self-aminoacylation >= 9? AAAUUUGCUAAUAGUCGCACG [Fam3.1 aminoacylation ribozyme variant]
false (0)

Quick check, self-aminoacylation >= 9? AUUACCCUAGUCAUCGAGUGU [Fam2.1 aminoacylation ribozyme variant]
false (0)

Quick check, self-aminoacylation >= 9? CUUACCCUGGACAUCGAGUGA [Fam2.1 aminoacylation ribozyme variant]
true (1)

Quick check, self-aminoacylation >= 9? AUUCACCUAGUUCUUCGGGUG [Fam2.2 aminoacylation ribozyme variant]
true (1)

Quick check, self-aminoacylation >= 9? AUGCACCUAGGUCAUCGAGUG [Fam2.2 aminoacylation ribozyme variant]
false (0)

Quick check, self-aminoacylation >= 9? CUACUUCAAACAAUCGUUCUU [Fam1A.1 aminoacylation ribozyme variant]
false (0)

Quick check, self-aminoacylation >= 9? CUUCUUCAAGCAAUCGGUCUG [Fam1A.1 aminoacylation ribozyme variant]
false (0)

Quick check, self-aminoacylation >= 9? AAGUUUGCUAAUAGUCGGUAG [Fam3.1 aminoacylation ribozyme variant]
false (0)

Quick check, self-aminoacylation >= 9? CCACACUUCAAGCAAUCAGUG [Fam1B.1 aminoacylation ribozyme variant]
false (0)

Quick check, self-aminoacylation >= 9? AUUACCCUGUUCAUCCAGUGA [Fam2.1 aminoacylation ribozyme variant]
true (1)

Quick check, self-aminoacylation >= 9? AUUACCCUGGUCUUCGUGUGA [Fam2.1 aminoacylation ribozyme variant]
false (0)

Quick check, self-aminoacylation >= 9? AUUCCCCUGGUCAUCGAGGGA [Fam2.1 aminoacylation ribozyme variant]
false (0)

* * *

- System: biotinyl-Leu-oxazolone
- assay-procedure: self-aminoacylation, catalytic enhancement (BLO) (fold over background); higher = more active; k-Seq, kA / k0A0; sequences stand for … in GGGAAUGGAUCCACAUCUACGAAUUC…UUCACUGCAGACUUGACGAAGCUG
Variants at the floor of the assay were thinned out.
Exercise: state measured self-aminoacylation for each of the sequences provided.
Give the figure by itself; no unit, no explanation.

Entry CUAUUUCAAACAAUCGGUUUG [Fam1A.1 aminoacylation ribozyme variant] : self-aminoacylation on biotinyl-Leu-oxazolone = 1

Entry CCACACUUCAGGCAAUCGCUC [Fam1B.1 aminoacylation ribozyme variant] : self-aminoacylation on biotinyl-Leu-oxazolone = 2.71

Entry CUAGUUCAAACAAUCGGUCAG [Fam1A.1 aminoacylation ribozyme variant] : self-aminoacylation on biotinyl-Leu-oxazolone = 0.692

Entry AUAACCCUGGUCAUCGAGAGA [Fam2.1 aminoacylation ribozyme variant] : self-aminoacylation on biotinyl-Leu-oxazolone = 0.822

Entry CCACACUUCAAGCAAUCUGCC [Fam1B.1 aminoacylation ribozyme variant] : self-aminoacylation on biotinyl-Leu-oxazolone = 0.787

Entry AUUACGGUGGUCAUCGAGUGA [Fam2.1 aminoacylation ribozyme variant] : self-aminoacylation on biotinyl-Leu-oxazolone = 2.56

Entry CCACACUUCAGGCAACCGGUC [Fam1B.1 aminoacylation ribozyme variant] : self-aminoacylation on biotinyl-Leu-oxazolone = 1.38

Entry AAGUUUGCUCAUUGUCGCAAG [Fam3.1 aminoacylation ribozyme variant] : self-aminoacylation on biotinyl-Leu-oxazolone = 0.923
